# assay notes: soluble fraction after stress (log2 fold change); higher = more stays soluble; pooled small domains, quantitative proteomics;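 note: 20 min heating vs room temperature control held 20 min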
# measurement setup: stress: 75 degC
Measured soluble fraction (log2), listed per entry for reference.

// below: answered sequences
HMPVQSNRDALLDIGQTLQVQAWDAQGSARVSYRGSDWTAEFRGPGAAAPGLHRIIAVQGNRLIVEPA = 0.342
HMSDMIGQNIRRLRTEKQMTQKALADKLFVTAQAVSRWENGEVEPSLSTVTEIARIFNVSADEILGI = -0.228

I am curious: what soluble fraction (log2) value has been reported for HMYSIKEFSFEVTTPGQRLDLFLSEELIGQTRSSIQNLILKKYVTVNGQVSKASYKVKTGEFISVKIPV ? -3.1

====

soluble fraction (log2) values, listed per item
# assay notes: soluble fraction after stress (log2 fold change); higher = more stays soluble; pooled small domains, quantitative proteomics
# measurement setup: stress: 75 degC

HMYRYGETPMVVVPDLIGRTVSDIYEEMNADFRLEKFGNGNTVISQAPKPGERVEQGSVIRVYLSGQDQ = 0.0556
HMQPPKIISTVEPYREVVREYLKQGVEMTAIWQRLRENYQYTGSYSSVRRFVAQLEPRQPEA = -1.9
HMDQVYYDLKSLIELLPADQMEVLKMRYFEELSFKKIAQKIDVSINTALGRMRYALINLRALSKKHHID = -0.272
HMPKAPHETLSRREMEVLLLLSEGVTLTRIGDTIHVSVKTVSTYRARILQKLDLQSNAELTRYVLQHKL = -5.8
HMDGVPPAGSRIRLTVSTQVGDKEFEGTLVPPAGVDLLTLKLANGYNLSHSIADVREVVLIEEGLQGEEP = -0.191

// soluble fraction (log2) lookup, key: HMPEVTMSYSARNQVVSFSKATQYEIVDEFGTVVLRGVGNQATLRYLSRGDYFVNFGAGTEVLKK -0.0464

Repeat with HMYLSNPTYRGDSLVDALTQIGVDASFASRRDLARKNGIENYTGSAKQNLELLQLLREGRLR 0.402

Again, but for HMDETELLLQKAIATLPDKQRVVFNLKYFDEMKYEEMSELLETSVGALKASYHLAVKKIEQFFHDA -0.555

====

# assay notes: soluble fraction after stress (log2 fold change); higher = more stays soluble; pooled small domains, quantitative proteomics
# measurement setup: stress: 75 degC
property: soluble fraction (log2)
In your answer, state the number alone without any accompanying words.

HMQPIEIQDRITKAFERSAALEAKNINVEVDGHTVKLTGTVHSLTEKEEARKAAFFAPGVTKVENHLIVDY = 0.0424
HMPAASDALAGELAQIARLDIAKLLAGDLSEADWSRITSATVQLSERHPDASDELTALVERIDTAYSARAT = 0.0397

I am curious: what soluble fraction (log2) value has been reported for HMAESTRSRILNAAIEMMETGGESSVRLSAIAEALGIKEPSIYHHFTNRTELVNAAYIEWYW ? -1.07

Now this one: HMVPADVQHLRDIVDTMTEKQQLVYKLHVLEGYTFTEIAKLMGTSIPNVKKHYDKAILFIKNNF -1.79

====

# assay notes: soluble fraction after stress (log2 fold change); higher = more stays soluble; pooled small domains, quantitative proteomics
# measurement setup: stress: 75 degC
Cut-off -0.2 on soluble fraction (log2), inclusive. At or above means 1.0; below means 0.0.

HMAISEAERARLQTKIKERNKMARWINTNLNPTSKIRNINPAETVRKLMTQDDADSLERSLDAFMEA = 1.0

Exam item: decide whether the reported soluble fraction (log2) for HMGSYIGEAKAKEIALSHAGVSASQATFVRSQFEYDDGRAVYDVDFWSGNKEYDYEIDAKSGTIVSYDFD is at least -0.2. 0.0

For HMDFPYISGIEIAAIKNREFIRIETDKAQEIAIALDKSGIPFSARFSDAEMVLTYDGSYKEQVEDIIAKA then? 0.0

What do you have for HMPGRKKLAIIYKNDYIGAFNLADSYRDSYEVSMYAFPKKVGKLLNRLELQGFNAYVIYDKDNEENNFNTI ? 0.0

Can you check HMRPIWVQLADDFRHRIVSGQWPPGSKIPSVRELAAETGVNPNTVQRALGALDGEGLTATERTAGRFVTT next? 0.0

Continue with HMDPVATLTPREREVLELMAEGRTNAGIAEAMVVTEGAVEKHIQRIFAKLGLHADGGVHRRVAAVLALLG 0.0

Now consider HMIDFDEQGNLWVHEMGPRHGDELNLIEKARNYGYPTVSQGDHYSGVKISNHEDIPIFKSPEKAWVPAISP . 0.0

What do we get for HMGKPSSEELEALGRRTLEENVDVVEEILGGRDPKGKKIKYLEGLMMRALRGQETPEAVRRTLEELIFK ? 1.0
